Biological target: T1, cynomolgus monkey GITR expressed on HT1080 cells (cynomolgus monkey)
T1 chain: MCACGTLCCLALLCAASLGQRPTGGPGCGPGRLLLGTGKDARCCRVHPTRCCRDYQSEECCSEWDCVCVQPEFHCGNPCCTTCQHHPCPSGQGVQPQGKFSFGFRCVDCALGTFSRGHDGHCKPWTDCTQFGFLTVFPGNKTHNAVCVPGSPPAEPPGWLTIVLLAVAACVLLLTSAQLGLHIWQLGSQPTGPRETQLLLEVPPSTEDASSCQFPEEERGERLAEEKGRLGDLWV
Test: cell-based or functional assay
Each record here notes measured EC50 in cynomolgus HT1080 (IL-8 induction).
OBSERVABLE: EC50 in cynomolgus HT1080 (IL-8 induction)

>  <BINDER>
ABP15 (antibody, human IgG1, kappa, N297A, V domains shown) VH: QVQLVQSGAEVKKPGSSVKVSCKASGGTFSSYAISWVRQAPGQRLEWMGGIIPISGFTNYAQKFQGRVTITADESTSTAYMELSSLRSEDTAVYYCAREGGHYYSGWPYWGQGTLVTVSS VL: EIVLTQSPATLSLSPGERATLSCRASQSVSSYLAWYQQKPGQAPRLLIYDASNRATGIPARFSGSGSGTDFTLTISSLEPEDFAVYYCQQRLVFPPTFGGGTKVEIKR

>  <MEASURED>
4.5 nM

$$$$
>  <BINDER>
ABP14 (antibody, human IgG1, kappa, N297A, V domains shown) VH: QVQLVQSGAEVKKPGSSVKVSCKASGGTFSSYAISWVRQAPGQGLEWMGGIIPISGFTNYAQKFQGRVTITADESTSTAYMELSSLRSEDTAVYYCAREGGHYYSGWPYWGQGTLVTVSS VL: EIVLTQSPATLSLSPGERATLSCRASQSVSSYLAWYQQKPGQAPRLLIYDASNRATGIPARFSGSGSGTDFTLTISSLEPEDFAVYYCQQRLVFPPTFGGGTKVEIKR

>  <MEASURED>
4.1 nM

$$$$
>  <BINDER>
ABP16 (antibody, human IgG1, kappa, N297A, V domains shown) VH: QVQLVQSGAEVKKPGSSVKVSCKASGGTFSSYAISWVRQAPGQGLEWMGGIIPISGFTNYAQKFQGKVTITADESTSTAYMELSSLRSEDTAVYYCAREGGHYYSGWPYWGQGTLVTVSS VL: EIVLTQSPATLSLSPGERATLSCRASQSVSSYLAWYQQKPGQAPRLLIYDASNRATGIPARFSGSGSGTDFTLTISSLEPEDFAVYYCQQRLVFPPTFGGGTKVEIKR

>  <MEASURED>
3.8 nM

$$$$
>  <BINDER>
ABP13 (antibody, human IgG1, kappa, N297A, V domains shown) VH: QVQLVQSGAEVKKPGSSVKVSCKASGGTFSRGAISWVRQAPGQGLEWMGGIIPIEGTAYYAQKFQGRVTITADESTGTAYMELSSLRSEDTAVYYCARQSDYGLPRGMDVWGQGTTVTVSS VL: DIQLTQSPSSVSASVGDRVTITCRASQGISSWLAWYQQKPGKAPKLLIYGASSLQSGVPSRFSGSGSGTDFTLTISSLQPEDFATYYCQQASLFPPTFGGGTKVEIKR

>  <MEASURED>
15 nM

$$$$
